Source of measurements: PubChem BioAssay (NCI)

Test system: K-562 leukemia
assayProcedure: NCI tumour cell line growth inhibition, 48 h
parameter: GI50

Please review the following examples before continuing.
# structureNotation, GI50
rows = [
    ("COc1cc(CCN)c2c(c1OC)SSSSS2", "629 nM"),
    ("O=C(Nc1ccc(F)cc1)c1ccc(NC2=C(Cl)C(=O)N(Cc3ccccc3)C2=O)cc1", "3790 nM"),
]

Fill in: K-562 leukemia GI50 for COc1cc(/C=C2\CCC/C(=C\c3cc(OC)c(O)c(OC)c3)C2=O)cc(OC)c1O = 2260 nM

###

Tested on: HOP-62 NSCLC
assayProcedure: NCI tumour cell line growth inhibition, 48 h
parameter: GI50

# structureNotation, parameter, reading
rows = [
    ("COc1cc(/C=C2\\CCC/C(=C\\c3cc(OC)c(O)c(OC)c3)C2=O)cc(OC)c1O", "GI50", "5.93 µM"),
    ("CCc1n(Cc2ccc3ccccc3n2)cc[n+]1Cc1ccc2ccccc2n1", "GI50", "4.66 µM"),
    ("O=C1c2ccc([N+](=O)[O-])cc2-c2c1c1ccccc1c(=O)n2CCCNCCCNCCCn1c2c(c3ccc([N+](=O)[O-])cc3c1=O)C(=O)c1ccccc1-2", "GI50", "1.85 µM"),
]

GI50 in this record for C/C(=N\O)c1cccc(Nc2cc(-n3ccnn3)c3ccccc3n2)c1 : 15.2 µM

GI50 in this record for COc1ccc2c(c1)C(=O)c1c-2n(CCCN=[N+]=[N-])c(=O)c2cc(N(C)C)ccc12 : 10.3 µM

GI50 in this record for COc1ccc2c(c1)/C(=C\c1cccnc1)C(=O)N2 : 23 µM

###

TGI reference
Tested on: HS 578T breast
assayProcedure: NCI tumour cell line growth inhibition, 48 h
Write the value in µM as a bare number.

Please review the following examples before continuing.
# structureNotation, reading
measured = [
    ("CN1CCN(c2ccc(NC(=O)c3nc4ccc5[nH]ncc5c4c4c3CCCC4)cc2C(F)(F)F)CC1", 19.4),
    ("COc1cc(CCN)c2c(c1OC)SSSSS2", 5.17),
]

TGI in this record for CC1(C)CC[C@H](Nc2ncc(C(F)(F)F)c(-c3c[nH]c4c(P(C)(C)=O)c(C#N)ccc34)n2)CN1 : 10.6

###

System: RPMI-8226 leukemia
assayProcedure: NCI tumour cell line growth inhibition, 48 h
parameter: TGI (µM)
Write the value in µM as a bare number.

# structureNotation, systemUnderTest, TGI (µM)
data = [
    ("CC1(C)CC[C@H](Nc2ncc(C(F)(F)F)c(-c3c[nH]c4c(P(C)(C)=O)c(C#N)ccc34)n2)CN1", "RPMI-8226 leukemia", 3.43),
]

Field: next compound
TGI in this record for O=C1c2ccc([N+](=O)[O-])cc2-c2c1c1ccccc1c(=O)n2CCCNCCCNCCCn1c2c(c3ccc([N+](=O)[O-])cc3c1=O)C(=O)c1ccccc1-2 : 0.82

###

Test system: SW-620 colon
assayProcedure: NCI tumour cell line growth inhibition, 48 h
parameter: TGI

Please review the following examples before continuing.
# compound, parameter, reading
measured = [
    ("CN(C)c1nc(N(C)C)nc(N(C)C23CC4CC(CC(C4)C2)C3)n1", "TGI", "> 100 µM"),
    ("C1C[OH+]CC[OH+]CCNCC[OH+]CC[OH+]CCN1.[Cl-].[Pt+4]", "TGI", "> 100 µM"),
    ("COc1cc(/C=C/C(=O)c2c(=O)o[nH][n+]2-c2ccccc2)ccc1[O-]", "TGI", "5.85 µM"),
    ("CC(=O)NNc1nc(C)c(C(=O)NNC(=O)C(=O)Nc2c(C)cccc2C)s1", "TGI", "> 100 µM"),
    ("CO/C(=N\\N=C\\c1cccc(Cl)c1)c1ccncc1", "TGI", "> 10 µM"),
]

TGI in this record for Cn1nc2n(c1=O)CCCN2 : > 100 µM

TGI in this record for O=C(Nc1ccc(F)cc1)c1ccc(NC2=C(Cl)C(=O)N(Cc3ccccc3)C2=O)cc1 : > 100 µM

###

System: LOX IMVI melanoma
assayProcedure: NCI tumour cell line growth inhibition, 48 h
parameter: TGI

# compound, parameter, reading
rows = [
    ("CC1CC2CC(=O)CC3(C1)C2CCCN3CCCO (centres undefined)", "TGI", "> 100 µM"),
    ("COc1ccccc1/C=C/[N+](=O)[O-]", "TGI", "2.86 µM"),
    ("CC1(C)CC[C@H](Nc2ncc(C(F)(F)F)c(-c3c[nH]c4c(P(C)(C)=O)c(C#N)ccc34)n2)CN1", "TGI", "7.44 µM"),
]

TGI in this record for CCCn1c(SC)nc(COC(=O)NC)c1COC(=O)NC : > 100 µM

TGI in this record for CCc1n(Cc2ccc3ccccc3n2)cc[n+]1Cc1ccc2ccccc2n1 : 13.2 µM

TGI in this record for C(=C\c1cccc(/C=C/c2ccccn2)n1)/c1ccccn1 : > 100 µM

TGI in this record for COc1ccccc1/C=C1\CCC(CCN(C)C)(C2=CCCC2)C1=O (centres undefined) : 31.3 µM

TGI in this record for O=C1C=C(NCCNC(=S)Nc2ccccc2)c2nccc3c2c1nc1ccccc13 : > 100 µM

TGI in this record for O=C(Nc1ccc(Cl)cc1Cl)C(=O)C(C(=O)c1ccc2ccccc2c1)C1OC(=O)c2ccccc21 (centres undefined) : 24.9 µM

TGI in this record for Nc1cccc2c1C(=O)c1cccc(N)c1C2=O : > 100 µM

###

TGI reference
Test system: HOP-92 NSCLC
assayProcedure: NCI tumour cell line growth inhibition, 48 h

Please review the following examples before continuing.
# molecule, systemUnderTest, TGI
data = [
    ("Cc1cc(=O)n2nc(SCc3ccccc3)sc2n1", "HOP-92 NSCLC", "> 100 µM"),
    ("CCOC(=O)C1=C(c2ccccc2)N(C)c2ccccc2S1", "HOP-92 NSCLC", "> 100 µM"),
    ("COC(=O)[C@H]1[C@@H](C(C)C)O[C@@H](C(C)C)O[C@H]1C(F)(F)F", "HOP-92 NSCLC", "> 100 µM"),
    ("CCCc1c(CC)c(=N)c2ccccc2n1C", "HOP-92 NSCLC", "> 100 µM"),
    ("COc1cc(/C=C/C(=O)c2c(=O)o[nH][n+]2-c2ccccc2)ccc1[O-]", "HOP-92 NSCLC", "7.39 µM"),
    ("O=C(c1ccc(Cl)cc1)c1ccc(OCCCCCCCCCCOc2ccc(C(=O)c3ccc(Cl)cc3)cc2)cc1", "HOP-92 NSCLC", "> 100 µM"),
    ("O=C([CH-]C(=O)c1ccccc1)c1ccccc1.O=C([CH-]C(=O)c1ccccc1)c1ccccc1.O=C([CH-]C(=O)c1ccccc1)c1ccccc1.[Nd+3].[OH3+]", "HOP-92 NSCLC", "25.5 µM"),
    ("O=[N+]([O-])c1ccc2nc(-c3ccccn3)c(-c3ccccn3)nc2c1", "HOP-92 NSCLC", "> 100 µM"),
]

TGI in this record for CO/C(=N\N=C\c1cccc(Cl)c1)c1ccncc1 : > 10 µM

TGI in this record for c1ccc(CCNCc2ccco2)nc1 : > 100 µM

TGI in this record for CCOC(=O)C(NC(=O)N(C1=NCC(C)S1)C1CCCCC1)(OC)C(F)(F)F (centres undefined) : > 100 µM

TGI in this record for CCc1n(Cc2ccc3ccccc3n2)cc[n+]1Cc1ccc2ccccc2n1 : 0.521 µM

TGI in this record for C(=C\c1cccc(/C=C/c2ccccn2)n1)/c1ccccn1 : > 100 µM

TGI in this record for COC[C@@H](N=CN1CCc2cc(OC)c(OC)cc2[C@@H]1C)C(C)(C)C : > 100 µM

###

Tested on: HS 578T breast
assayProcedure: NCI tumour cell line growth inhibition, 48 h
parameter: TGI

# compound, parameter, reading
rows = [
    ("CC1(C)OCC(C(O)C2OC(C)(C)OC2C=O)O1 (stereo unspecified)", "TGI", "> 100 µM"),
]

TGI in this record for CCOC(=O)C(NC(=O)N(C1=NCC(C)S1)C1CCCCC1)(OC)C(F)(F)F (stereo unspecified) : > 100 µM

TGI in this record for O=C1CCC2(CCO1)OCCO2 : > 100 µM

###

Test system: SNB-75 CNS
assayProcedure: NCI tumour cell line growth inhibition, 48 h
TGI reference

Please review the following examples before continuing.
# compound, parameter, reading
data = [
    ("COc1cccc(CC(C)NCC(O)c2ccc(O)c(O)c2)c1 (stereo unspecified)", "TGI", "> 100 µM"),
    ("C/C=C\\C(CC(=O)NCCc1cn(C(=O)OCc2ccccc2)c2ccccc12)CC(=O)OC (stereo unspecified)", "TGI", "> 100 µM"),
]

TGI in this record for NC1CCCCC1.[O]=[Ge].[O]=[Ge].[O]=[Ge][OH].[O]=[Ge][OH] : > 100 µM

TGI in this record for CCNc1ccc2c(c1)Cc1ccccc1-2 : > 100 µM

TGI in this record for Cc1cc(C)c(P2C(=C(O[Si](C(C)C)(C(C)C)C(C)C)C(C)(C)C)C2(c2ccccc2)c2ccccc2)c(C)c1 (stereo unspecified) : > 100 µM

TGI in this record for OCCCOC(c1ccccc1)(c1ccccc1)c1ccccc1 : 62 µM

TGI in this record for O=C(c1ccc(Cl)cc1)c1ccc(OCCCCCCCCCCOc2ccc(C(=O)c3ccc(Cl)cc3)cc2)cc1 : > 100 µM

TGI in this record for CCn1c(C(=O)N(C2CC2)C2CC2)cc2c3c(ncn3C)c(Nc3cc(C)n(C)n3)nc21 : 32.5 µM
